Assay Details: reversal of MRP1-mediated doxorubicin resistance, pilot screen, H69AR cells, doxorubicin co-treatment (AID 601)
Condition Info: H69AR cells, CellTiter-Glo, 72 h; compound alone cytotoxicity; at 10 µM
Exercise: state measured viability for each of the compounds provided.
Answers are plain numbers, in %.

Here are 8 compounds together with their reported answers.
{"columns": ["Compound", "viability, %"],
 "data": [
  ["Cc1ccnc(SCCn2c(N3CCCCC3)nc3c2c(=O)n(C)c(=O)n3C)n1", 91.2],
  ["O=C(Cc1c(O)c2ccccc2[nH]c1=O)NCc1ccc(F)cc1", 91.3],
  ["CCC(=O)N1CCc2cc(OC)c(OC)cc2C1COc1ccc(C(=O)OC)cc1 (stereo not given)", 91.5],
  ["COc1ccccc1N1CCN(CCCNC(=O)Nc2ccccc2)CC1", 90.3],
  ["CCOC(=O)N1CCN(S(=O)(=O)c2cc(Cl)c(OC)cc2Cl)CC1", 91.1],
  ["CCCN1C2=C(C(=O)CCC2)C(c2ccc(O)c(Br)c2)C2=C1CCCC2=O", 91.8],
  ["COC(=O)c1cccc(NC(=O)CSc2nnc(COc3ccc(C#N)cc3)n2-c2ccccc2)c1", 87.8],
  ["CCOC(=O)Nc1ccc2c(CN3C(=O)NC4(CCCC4)C3=O)cc(=O)oc2c1", 88.3]
]}

Record viability per entry; entries follow.
1. CC(C)OC(=O)CSc1nnc(-c2ccc(C(C)(C)C)cc2)n1N
2. O=C(NCCCCNC(=O)c1c(F)c(F)c(F)c(F)c1F)c1c(F)c(F)c(F)c(F)c1F

1: 88.4; 2: 89.4
